- methodSummary: qHTS Assay for Agonists of the Thyroid Stimulating Hormone Receptor: Activators of Intracellular cAMP Concentrations in Parental HEK 293; further: nearly all actives have a fitted effect of over 55% in size; further: potency means the concentration at half of the fitted maximal effect
- measurementParameters: parental HEK293 CNG cAMP sensor, membrane potential fluorescence; series mostly up to 57.1 µM
Among all 73,000 compounds or so, about 1,800 (2.5%) were called active. Roughly 13% stayed inconclusive and do not appear here. The full list was thinned out, with actives kept by preference.
propertyLabel: Potency

COc1ccc(CN2CC(C(=O)NCCN3CCN(c4ccccc4F)CC3)CC2=O)cc1 (stereo not drawn)
inactive
Cc1cc(C)c(C#N)c(SCc2ccccc2C(=O)O)n1
inactive
CCC(C)(C)NC(=O)C(c1cccn1C)N(Cc1ccc(C)cc1)C(=O)Cn1nnc2ccccc21 (stereo not drawn)
15.8 µM (active)
O=c1[nH][nH]c(=O)c2cc(N3CCCC3)ccc12
inactive
COC(=O)[C@H](C)[C@H]1C[C@]1(C)[C@H](NC(=O)OCc1ccccc1)c1ccccc1
2 µM (active)
CC1(C)CC(=O)C=C(NCCCNC2CCCCC2)C1
inactive
CCC(C)(C)N=C(NC#N)Nc1cccnc1
inactive

Let us move to another entry and its Potency.
Problem: // Input: CC(C)C(NC(=O)OCc1ccccc1)C(=O)OCC(=O)N1C(C)CCCC1C (stereo not drawn) . Output its Potency only.
Result: inactive
